The reported measurements were obtained from PubChem BioAssay AID463173.

Tested on: DeltatarO mutant
Experiment: S. aureus survival, RN4220 and DeltatarO strains – OD600, teichoic acid synthesis inhibitors, primary screen (AID 463173)
Conditions: S. aureus RN4220 wild type/DeltatarO growth, OD600, 18 h, hits give low values, screened at 18.75 µg/mL (by protocol)
Hit rate of the full screen: of about 52,000 compounds, about 4,300 (8.3%) were called active. What follows is part of a selection rich in actives, with near analogues and random picks from the rest.
Parameter Measured: survival

{"Compound": "COc1ccc(-c2cn3c(n2)sc2cc(C(=O)NCCc4ccc(OC)cc4OC)ccc23)cc1", "Tested On": "DeltatarO mutant", "Parameter Measured": "survival", "Result": "65% (inactive)"}
{"Compound": "Cc1ccc(C)c(S(=O)(=O)c2nnn3c2nc(Nc2ccc(C)c(C)c2)c2sccc23)c1", "Tested On": "DeltatarO mutant", "Parameter Measured": "survival", "Result": "77% (inactive)"}

Problem: Requested field: survival. Item: Cc1cc(C)n(-c2nc(C)c(C)c(=O)n2CC(=O)Nc2ccc([N+](=O)[O-])cc2)n1
Solution: 77% (inactive)

Problem: Requested field: survival. Item: COc1ccc(NC(=O)c2c(NCc3cccc(F)c3)sc3c2CCCC3)c(OC)c1
Solution: 69% (inactive)
